# subjectOfTest: T1, cynomolgus monkey serum albumin (cynomolgus monkey, UniProt A2V9Z4 25-608)
# T1 construct: bought protein, amine-coupled to a CM5 chip; also called Cyno SA
# experimentNotes: SPR (Biacore 8K), albumin immobilised, 25 C, 1:1 kinetics
assayReadout: kon (M⁻¹ s⁻¹)

1. INS Analog 26 (other, single-chain insulin B-L2-A-L1-VHH fusion; also called Ex. 26) FVSQHLCGSHLVEALRLVCGERGFFYTPKTGGGGGGGIVEQCCTSICSLYQLENYCGPGPQPGPQPGPQPGPQPGPQPGPQPGPQPGPQEVQLLESGGGLVQPGGSLRLSCAASGRYIDETAVAWFRQAPGKEREFVAGIGGGVDITYYADSVKGRFTISRDNSKNTLYLQMNSLRPEDTAVYYCAARPGRPLITSKVADLYPYWGQGTLVTVSSPP | 180000
